Measurement Name: melting point

Worked cases, answers included:
[[record]]
entry_smiles = "CCc1cc2c(-c3ccccc3)cc(=O)oc2c2c(-c3ccccc3)coc12"
measured_result = "178 to 180 °C"

[[record]]
entry_smiles = "CCc1cc2c(C)cc(=O)oc2c2c(-c3ccccc3)coc12"
measured_result = "103 to 105 °C"


For this molecule ( CCc1cc2c(-c3ccccc3)cc(=O)oc2cc1OCC(=O)c1ccc(OC)cc1 ), measured melting point is 183 to 185 °C

* * *

Tested on: Escherichia coli ATCC 25922
Protocol Details: Antimicrobial agar cup-plate assay, E. coli
Type: cell-based
Protocol Conditions: 0.1 mL of compound in DMF, overnight incubation, mean ± SD, at least three experiments
Catalogue of compounds with associated Inhibition Zone (mm) E. coli
Report as a plain number; the unit mm is understood.

As a guide, the following entries are already answered.
[[record]]
compound = "CCc1cc2c(C)cc(=O)oc2c2c(C)c(C)oc12"
measured_result = 15

[[record]]
compound = "NC[C@H]1O[C@H](O[C@H]2[C@H](O)[C@@H](O[C@H]3O[C@H](CO)[C@@H](O)[C@H](N)[C@H]3O)[C@H](N)C[C@@H]2N)[C@H](N)C[C@@H]1O [Tobramycin, reference compound]"
measured_result = 20

[[record]]
compound = "CCc1cc2c(-c3ccccc3)cc(=O)oc2cc1OCC(=O)c1ccccc1"
measured_result = 16

[[record]]
compound = "CCc1cc2c(-c3ccccc3)cc(=O)oc2c2c(-c3ccc(C)cc3)coc12"
measured_result = 25


For CCc1cc2c(-c3ccccc3)cc(=O)oc2c2c(-c3ccc(OC)cc3)coc12 the compound record lists Inhibition Zone (mm) E. coli as 18

In plain terms, CCc1cc2c(C)cc(=O)oc2c2c3c(oc12)CCCC3 has a documented Inhibition Zone (mm) E. coli of 16

* * *

Recorded MIC, one value per entry.
Tested on: Bacillus subtilis ATCC 14579
Protocol Details: Photosensitizing assay (MIC before and after UV irradiation, agar cup-plate)
Format: cell-based
Protocol Conditions: Bacillus subtilis, ATCC14579, light or radiation study; B. subtilis, without irradiation (antibacterial activity), 100 μL per cup; read-out: MIC (mg mL^−1) Control
Express the result in µg/mL but write the number alone.

[[record]]
molecule = "CCc1cc2c(C)cc(=O)oc2cc1OC(C)C(C)=O (stereo not drawn)"
units_text = "µg/mL"
measured_result = 6250

[[record]]
molecule = "CCc1cc2c(-c3ccccc3)cc(=O)oc2c2c(-c3ccccc3)coc12"
units_text = "µg/mL"
measured_result = 780

[[record]]
molecule = "CCc1cc2c(C)cc(=O)oc2cc1OC1CCCCC1=O (stereo not drawn)"
units_text = "µg/mL"
measured_result = 3120


Short answer for CCc1cc2c(C)cc(=O)oc2c2c1oc1ccccc12 : MIC was 3120

Documented MIC of CCc1cc2c(C)cc(=O)oc2c2c3c(oc12)CCCC3 : 3120

CCc1cc2c(C)cc(=O)oc2c2c(C)c(C)oc12 yielded MIC of 780

// sample CCc1cc2c(C)cc(=O)oc2c2c(-c3ccc(OC)cc3)coc12 , its MIC was 780

The value of MIC measured for the molecule CCc1cc2c(-c3ccccc3)cc(=O)oc2c2c(-c3ccc(C)cc3)coc12 turned out to be 390

Reported MIC ( CCc1cc2c(-c3ccccc3)cc(=O)oc2cc1OC(C)C(C)=O (stereo not drawn) ) = 6250
